Target: human ANO1 channel (isoform acd) (Homo sapiens)
Construct: host or cells: HEK293T
Sequence (Q5XXA6 whole entry, canonical isoform): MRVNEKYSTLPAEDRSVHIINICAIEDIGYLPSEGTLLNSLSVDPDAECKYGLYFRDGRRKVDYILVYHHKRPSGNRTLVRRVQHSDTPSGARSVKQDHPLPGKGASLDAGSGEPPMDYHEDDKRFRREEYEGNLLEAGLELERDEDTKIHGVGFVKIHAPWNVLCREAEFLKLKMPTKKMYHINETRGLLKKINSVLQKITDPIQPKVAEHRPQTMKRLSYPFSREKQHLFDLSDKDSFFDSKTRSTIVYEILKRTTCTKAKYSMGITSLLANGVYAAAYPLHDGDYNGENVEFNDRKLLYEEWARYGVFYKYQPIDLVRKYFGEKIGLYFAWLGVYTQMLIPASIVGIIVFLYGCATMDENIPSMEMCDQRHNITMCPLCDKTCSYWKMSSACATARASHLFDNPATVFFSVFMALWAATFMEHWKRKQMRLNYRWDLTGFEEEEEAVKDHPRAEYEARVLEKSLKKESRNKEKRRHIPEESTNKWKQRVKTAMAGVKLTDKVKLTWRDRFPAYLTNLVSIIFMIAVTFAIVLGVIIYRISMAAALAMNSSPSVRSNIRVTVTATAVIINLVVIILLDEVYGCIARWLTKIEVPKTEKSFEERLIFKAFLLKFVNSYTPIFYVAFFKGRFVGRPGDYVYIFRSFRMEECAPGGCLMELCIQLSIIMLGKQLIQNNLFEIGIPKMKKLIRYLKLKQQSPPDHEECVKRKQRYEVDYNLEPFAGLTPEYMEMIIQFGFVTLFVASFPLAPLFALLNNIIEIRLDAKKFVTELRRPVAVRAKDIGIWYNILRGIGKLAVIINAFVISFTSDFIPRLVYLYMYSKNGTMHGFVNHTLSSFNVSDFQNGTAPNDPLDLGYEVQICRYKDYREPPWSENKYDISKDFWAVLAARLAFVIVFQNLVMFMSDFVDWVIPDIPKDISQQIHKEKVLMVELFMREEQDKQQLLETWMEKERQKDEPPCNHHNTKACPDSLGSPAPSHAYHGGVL
Experiment: QPatch-48 automated whole-cell electrophysiology, cumulative five-concentration single-addition protocol
Type: cell-based
Conditions: half plate (24-well format), cumulative single-addition, n = 5; read-out: average IC50 (mean ± SD)
Method: HEK293T cells stably expressing the human ANO1 channel (isoform acd) were obtained from Scottish Biomedical. Cells were cultured in Sigma Minimum Essential Media containing 10% heat-inactivated fetal bovine serum, 1% penicillin/streptomycin, 1% glutamine, and 600 ng/mL geneticin. […] When subculturing, cells were rinsed once with room temperature 1 × phosphate-buffered saline (PBS; Ca^2+/Mg^2+ free), lifted with TrypLE Express, resuspended in prewarmed growth media, and counted using a hemocytometer. […]
Entries annotated with measured IC50
Dear colleague, please return just the value in nM, with no unit written.

CCc1oc2ccccc2c1C(=O)c1cc(Br)c(O)c(Br)c1
2540

// query # query: IC50 | item O=C(Nc1ccc([N+](=O)[O-])cc1Cl)c1cc(Cl)ccc1O [Niclosamide] | system: human ANO1 channel (isoform acd) (Homo sapiens)
// result 1600
